Target: UniProtKB P19327
Sequence (P19327 whole entry): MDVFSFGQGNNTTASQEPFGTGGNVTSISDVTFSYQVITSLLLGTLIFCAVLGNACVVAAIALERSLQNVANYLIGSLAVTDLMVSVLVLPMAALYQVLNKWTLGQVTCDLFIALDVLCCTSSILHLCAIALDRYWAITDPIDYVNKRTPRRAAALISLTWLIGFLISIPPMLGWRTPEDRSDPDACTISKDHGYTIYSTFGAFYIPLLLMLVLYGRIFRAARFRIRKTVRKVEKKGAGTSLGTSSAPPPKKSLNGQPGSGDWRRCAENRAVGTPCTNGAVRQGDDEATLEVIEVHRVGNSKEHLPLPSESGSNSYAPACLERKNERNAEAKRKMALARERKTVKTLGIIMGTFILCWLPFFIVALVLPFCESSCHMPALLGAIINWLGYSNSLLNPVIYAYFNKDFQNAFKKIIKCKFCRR
pKi: −log10 of the molar value.
Respond with T for pKi values of 7 and above, F for values below.

Please review the following examples before continuing.
INSERT INTO assay_data (compound, cat) VALUES
  ('COc1ccccc1N1CCN(CCCN2C(=O)NC3(CCCc4ccccc43)C2=O)CC1 (racemic)', 'T'),
  ('O=C1NC2(CCCc3ccccc32)C(=O)N1CCCN1CCN(c2cccc(Cl)c2)CC1 (racemic)', 'F'),
  ('O=C1NC(c2ccccc2)(C2CC2)C(=O)N1CCCN1CCN(c2cccc(Cl)c2)CC1 (racemic)', 'T');

Please find the next compound below.
Qu. Is pKi at least 7? Consider COc1ccccc1N1CCN(CCCN2C(=O)NC3(CCc4ccccc43)C2=O)CC1 (racemic)
Ans. T

###

Target: D(2) dopamine receptor (Rattus norvegicus)
Sequence (P61169 whole entry): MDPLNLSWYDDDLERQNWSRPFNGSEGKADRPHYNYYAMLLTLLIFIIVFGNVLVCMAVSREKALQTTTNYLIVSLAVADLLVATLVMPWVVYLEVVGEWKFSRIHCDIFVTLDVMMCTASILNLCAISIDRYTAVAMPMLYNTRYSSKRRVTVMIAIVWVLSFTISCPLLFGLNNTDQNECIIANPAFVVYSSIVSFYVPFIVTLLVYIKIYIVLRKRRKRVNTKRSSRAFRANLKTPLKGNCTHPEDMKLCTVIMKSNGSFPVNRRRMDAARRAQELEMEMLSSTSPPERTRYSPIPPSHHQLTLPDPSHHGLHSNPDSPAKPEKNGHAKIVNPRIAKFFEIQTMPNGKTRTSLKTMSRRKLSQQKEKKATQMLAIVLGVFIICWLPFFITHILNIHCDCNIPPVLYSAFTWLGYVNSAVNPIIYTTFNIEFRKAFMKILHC
Experiment: Displacement of [3H]spiperone from dopamine D2 receptor in rat brain striatum
Binary call on Ki with cut-off 4 µM: strictly below means Fulfilled, and equality or higher means Not fulfilled.

Please review the following examples before continuing.
INSERT INTO assay_data (molecule, cat) VALUES
  ('O=C1NC2(CCCc3ccccc32)C(=O)N1CCCN1CCN(c2cccc(Cl)c2)CC1 (racemic)', 'Fulfilled'),
  ('O=C1NC2(CCCc3ccccc32)C(=O)N1CCCN1CCN(c2ccccc2)CC1 (racemic)', 'Fulfilled'),
  ('O=C1NC2(CCc3ccccc32)C(=O)N1CCCN1CCN(c2cccc(Cl)c2)CC1 (racemic)', 'Not fulfilled');

Please find the next molecule below.
Qu. Regarding O=C1NC2(CCc3ccccc32)C(=O)N1CCCN1CCN(c2ccccc2)CC1 (racemic) , kindly confirm whether its Ki is beneath 4 µM.
Ans. Not fulfilled

These entries and their values trace back to ChEMBL document CHEMBL1157017.
